Reference for the values: paper PMC13224100

METHOD_NOTES: Stability of RSSH precursors with glutathione by HPLC
Assay type: physicochemical
APPLIED_CONDITIONS: precursor 100 µM, GSH 500 µM (5 equiv), PBS pH 7.4, 37 °C
MEASUREMENT_LABEL: decomposition half-life (t1/2) in the presence of GSH (min)

COC(=O)SSC(C)(C)C(NC(C)=O)C(=O)OC (stereo not shown) : 9
CC(=O)NC(C(=O)N(C)CCC[P+](c1ccccc1)(c1ccccc1)c1ccccc1)C(C)(C)SSC(=O)N(C)CCOC(C)=O (stereo not shown) : 56

[A] COC(=O)C(NC(C)=O)C(C)(C)SSC(=O)N(C)CCOC(C)=O (stereo not shown)
[B] COC(=O)SSC(C)(C)C(NC(C)=O)C(=O)N(C)CCC[P+](c1ccccc1)(c1ccccc1)c1ccccc1 (stereo not shown)
Input line: Form: Entry with minimum decomposition half-life (t1/2) in the presence of GSH (choose one): A / B Bench note: the answer is the label of the chosen record.
Output line: B
